Source: ChEMBL document CHEMBL1140803

Target: CYP2C9 (Homo sapiens)
Sequence (P11712 whole entry): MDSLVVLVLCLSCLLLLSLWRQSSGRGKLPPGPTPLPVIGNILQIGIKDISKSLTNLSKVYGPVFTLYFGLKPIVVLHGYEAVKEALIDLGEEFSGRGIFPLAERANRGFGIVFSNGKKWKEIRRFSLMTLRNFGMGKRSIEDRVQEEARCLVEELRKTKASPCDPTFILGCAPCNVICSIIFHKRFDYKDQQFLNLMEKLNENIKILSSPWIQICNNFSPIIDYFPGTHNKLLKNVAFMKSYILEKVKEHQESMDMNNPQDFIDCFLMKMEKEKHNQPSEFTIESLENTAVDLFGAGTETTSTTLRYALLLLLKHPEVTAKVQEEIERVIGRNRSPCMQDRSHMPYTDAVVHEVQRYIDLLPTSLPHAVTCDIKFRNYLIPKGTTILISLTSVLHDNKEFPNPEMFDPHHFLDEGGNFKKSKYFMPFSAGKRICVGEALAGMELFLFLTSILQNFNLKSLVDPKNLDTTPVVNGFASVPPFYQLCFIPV
Assay: Inhibition of human CYP2C9 at 10 uM
Format: ADME
Decision: inhibition at 10 µM >= 40% yields yes, all other cases yield no.

Would you please look over these solved cases?
[Q] // inclusive: inhibition at 10 µM at least 40%? input: Nc1ccc(-c2ccccc2)cc1NC(=O)c1ccc(CNC(=O)OCc2ccccc2)cc1
[A] no

[Q] Queued: Nc1ccc(-c2ccccc2)cc1NC(=O)c1ccc(CNC(=O)Oc2ccccc2)cc1
[A] no

[Q] Now try CCOC(=O)NCc1ccc(C(=O)Nc2cc(-c3ccccc3)ccc2N)cc1 .
[A] no

Further cases:
[Q] Could you please find out whether COC(=O)NCc1ccc(C(=O)Nc2cc(-c3ccccc3)ccc2N)cc1 has inhibition at 10 µM that meets 40% or exceeds it?
[A] yes

[Q] Moving on to CCC(=O)NCc1ccc(C(=O)Nc2cc(-c3ccccc3)ccc2N)cc1
[A] no

[Q] # iterate: Nc1ccc(-c2ccccc2)cc1NC(=O)c1ccc(CNC(=O)OCc2ccccn2)cc1
[A] yes

[Q] Similarly, Nc1ccc(-c2ccccc2)cc1NC(=O)c1ccc(CNC(=O)C2CCCCC2)cc1 ?
[A] no

[Q] Check Nc1ccc(-c2ccccc2)cc1NC(=O)c1ccc(CNC(=O)CCc2cccnc2)cc1 too.
[A] yes

[Q] Next record, please: CCCC(=O)NCc1ccc(C(=O)Nc2cc(-c3ccccc3)ccc2N)cc1
[A] no
